Quick reference for SI among some compounds
# System: HIV-1 (IIIB strain)
# Format: cell-based
# conditionLabel: selectivity index (CC50/EC50)

| compound | resultModifier | SI |
| --- | --- | --- |
| CCC(c1cc(=O)[nH]c(SC2CCCCC2)n1)c1cccc2ccccc12 (centres unmarked) [MC 975] | = | 94 |
| CCC(C)Sc1nc(Cc2ccccc2N)cc(=O)[nH]1 (centres unmarked) [MC 825] | > | 9 |
| CC(C)Sc1nc(C(C)c2ccccc2)cc(=O)[nH]1 (centres unmarked) [MC 890] | > | 222 |
| CCC(C)Sc1nc(Cc2ccc(Cl)cc2)c(C)c(=O)[nH]1 (centres unmarked) [MC 911] | = | 20 |
